// data source = PubChem BioAssay AID1259312

assay: survival after telomere uncapping, modulators, primary screen, cell-based (AID 1259312); conditions: HCT116 + Ad-hTR-mut, MTT, 5 d; at 10 µM;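 also: virus expresses mutant telomerase RNA that uncaps telomeres and kills cells; compound added 2 days after infection so exposure lasts 3 days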
About 200 (4.4%) of roughly 4,500 compounds were called active.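 The calls were made as follows: active = cell survival measured by absorbance rises more than 2.5-fold over infected cells without compound; inactive = the rest.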 Many of the other results were omitted from the sample, so actives are more common in it than they were.
In this exercise, the only acceptable responses are active, inactive

* O=S(=O)(c1ccc2ccccc2c1)N1CCc2ccccc21 | inactive
* Clc1nc2nonc2nc1Nc1ccc(Br)cc1 | inactive
* Cc1ccc(N=Nc2ccccc2)c(N)n1 | active
* O=[N+]([O-])c1ccc(N2CCN(S(=O)(=O)c3ccc4ccccc4c3)CC2)c2ncccc12 | inactive
* Cn1c(=O)oc2ccc(S(=O)(=O)Nc3ccc4c(c3)n(C)c(=O)n4C)cc21 | inactive
* COc1ccc(S(=O)(=O)Nc2cc(Cl)c(Cl)cc2Cl)cc1 | active
* COc1cc(NC(=O)CCC(=O)O)nc(OC)n1 | inactive
* O=C(Nc1ccc(Cl)cc1)Nc1ccc(Cl)cc1Cl | inactive
* CCOC(=O)c1csc(N)n1 | active
* COc1ccc(C2C3=C(Nc4ncnn42)c2ccccc2CC3)cc1OC (stereo not given) | inactive

For `S=c1nc(-c2ccccc2Cl)[nH][nH]1` , what call appears in the results of this test?
inactive

Which outcome was assigned to Cn1c(SC2CCOC2=O)nc2ccccc2c1=O (stereo not given) in this test?
inactive

Hi, do you know how `CN1CCN(Cc2cc(Cl)c3cccnc3c2O)CC1` came out in this test?
active

So what was the verdict on `O=[N+]([O-])c1ccc(Sc2nnnn2-c2ccccc2)c2cccnc12` in this test?
inactive

Hello, I am checking results. What call was entered for `Cc1nc2ccccc2nc1NO` ?
active

Any idea what this test logged for `Cn1cnnc1-c1ccc(N)cc1` ?
inactive
